FYI, the data here is from PubChem BioAssay.

// reported z-score for each item listed
# assay_protocol: basal S. cerevisiae growth modulation, no modifier, primary screen, OD600, strain BY4716, 24 h, basal condition (AID 1173)
# condition_info: OD600, 24 h, higher = more signal, called active from +8 up or from −8 down
Number only, no unit.

CN1C(=O)C2C=CC(C(O)C3=C[C@H]4C[C@@H](C3)C4(C)C)N(Nc3ccccc3)C2C1=O (some centres undefined): 0.0844
[N-]=[N+]=NCc1ccccc1[C@H]1OC(c2ccc(OCCCO)cc2)=N[C@@]1(Cc1ccccc1)C(=O)NCc1ccccc1: -0.223
COCC(=C=CC[C@@H](O)c1ccccc1OCCO)C[C@@H](O)c1cc(Cl)cc(Cl)c1O: -2.33

As a next step, examine the compound that follows.
z-score reported for this compound COc1ccc(C(O)C2C=CC3C(=O)NC(=O)C3N2Nc2ccccn2)cc1 (centres undefined) : 0.0843
